Where these numbers come from: patent US7582610B2

- Target Under Test: mMC4R (Mus musculus)
- Sequence (P56450 whole entry): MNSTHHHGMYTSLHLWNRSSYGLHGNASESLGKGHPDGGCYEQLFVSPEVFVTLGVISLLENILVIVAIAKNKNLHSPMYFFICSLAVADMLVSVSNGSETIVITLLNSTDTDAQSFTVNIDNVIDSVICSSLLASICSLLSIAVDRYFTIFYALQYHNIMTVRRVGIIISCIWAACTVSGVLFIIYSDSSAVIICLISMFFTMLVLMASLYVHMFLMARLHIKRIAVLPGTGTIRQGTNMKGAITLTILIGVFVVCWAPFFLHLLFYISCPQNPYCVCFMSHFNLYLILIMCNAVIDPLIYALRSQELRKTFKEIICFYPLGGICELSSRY
- Procedure Details: Functional bioassay, CRE/β-galactosidase reporter in HEK-293 cells stably expressing mMC4R
Where a SMILES comes first, the peptide text is derived from it. Bridges are numbered along the chain shown (N, C = ends). [ ]: non-standard residue; d: D form. Nle = CCCC[C@H](N)C(=O)O
Reported Endpoint: EC50

# Compound, Target Under Test, Obs Value
rows = [
    ("CCCC[C@H](NC(=O)[C@H](CO)NC(=O)[C@H](Cc1ccc(O)cc1)NC(=O)[C@H](CO)NC(C)=O)C(=O)N[C@@H](CCC(=O)O)C(=O)N[C@@H](Cc1c[nH]cn1)C(=O)N[C@@H](Cc1ccccc1)C(=O)N[C@@H](Cc1ccccc1)C(=O)N[C@@H](CCCNC(=N)N)C(=O)NCC(=O)N[C@@H](CCCCN)C(=O)N1CCC[C@H]1C(=O)N[C@H](C(N)=O)C(C)C [SEQ ID NO: 14] (Ac-SYS[Nle]EHFFRGKPV-NH2)", "mMC4R (Mus musculus)", "> 100 µM"),
]

q: For CCCC[C@H](NC(C)=O)C(=O)N[C@H]1CC(=O)NCCCC[C@@H](C(N)=O)NC(=O)[C@H](C)NC(=O)[C@H](C)NC(=O)[C@H](C)NC(=O)[C@H](Cc2c[nH]cn2)NC1=O [SEQ ID NO: 19, Ac-Nle-c[Asp-His-Ala-Ala-Ala-Lys]] (Ac-[Nle]DHAAAK-NH2; lactam 2-7) , what is its reported EC50?
a: > 100 µM

q: Cool, now C[C@@H]1NC(=O)[C@H](CC(N)=O)NC(=O)[C@H](Cc2c[nH]c3ccccc23)NC(=O)[C@H](CCCNC(=N)N)NC(=O)[C@@H](Cc2ccc(-c3ccccc3)cc2)NC(=O)[C@H](Cc2c[nH]cn2)NC(=O)[C@@H](NC(=O)[C@@H](N)Cc2ccc(O)cc2)CC(=O)NC[C@@H](C(=O)N[C@@H](Cc2ccc(O)cc2)C(N)=O)NC(=O)[C@H](Cc2ccccc2)NC1=O [SEQ ID NO: 35]
a: 0.00057 µM

q: Cool, now CCCC[C@H](NC(=O)[C@H](CO)NC(=O)[C@H](Cc1ccc(O)cc1)NC(=O)[C@H](CO)NC(C)=O)C(=O)N[C@@H](CCC(=O)O)C(=O)N[C@@H](Cc1c[nH]cn1)C(=O)N[C@@H](C)C(=O)N[C@@H](C)C(=O)N[C@@H](C)C(=O)NCC(=O)N[C@@H](CCCCN)C(=O)N1CCC[C@H]1C(=O)N[C@H](C(N)=O)C(C)C [SEQ ID NO: 12] (Ac-SYS[Nle]EHAAAGKPV-NH2)
a: > 100 µM
